# Target under test: T1, Human Factor P (human, UniProt P27918 29-469)
# T1 construct: Bought protein (Complement Technology cat# A139) in SET and Biacore; Factor P of human serum in the functional assays; also called FP; human FP
# T1 sequence (P27918 29-469 limits assumed): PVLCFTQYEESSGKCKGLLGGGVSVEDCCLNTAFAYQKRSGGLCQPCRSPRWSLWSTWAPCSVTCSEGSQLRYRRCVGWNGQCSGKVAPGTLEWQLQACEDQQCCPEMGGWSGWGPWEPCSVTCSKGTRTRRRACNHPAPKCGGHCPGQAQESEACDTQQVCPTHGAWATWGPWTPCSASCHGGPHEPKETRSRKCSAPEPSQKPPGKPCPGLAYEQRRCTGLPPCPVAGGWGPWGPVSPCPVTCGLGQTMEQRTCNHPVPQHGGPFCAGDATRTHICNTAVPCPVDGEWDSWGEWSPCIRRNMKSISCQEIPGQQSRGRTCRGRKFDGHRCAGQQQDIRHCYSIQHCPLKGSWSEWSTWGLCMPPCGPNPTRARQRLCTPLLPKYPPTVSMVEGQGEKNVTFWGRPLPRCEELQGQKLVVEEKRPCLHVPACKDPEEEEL
# Test name: Biacore SPR, captured Factor P
pKd: −log10 of the molar value.
pKd overview

Binder | pKd
NVS963 (Fab, V domains shown, Disulfide-bridged Fab; also called Fab NVS963) VH: EVQLVQSGAEVKKPGSSVKVSCKASGGTFSSYAISWVRQAPGQGLEWMGPINPYYGDAIYAQKFQGRVTITADESTSTAYMELSSLRSEDTAVYYCARYYSDYMDYWGQGTLVTVSS VL: QSVLTQPPSVSGAPGQRVTISCTGSSSNIGAGYDVHWYQQLPGTAPKLLIHDNSHRPSGVPDRFSGSKSGTSASLAITGLQSEDEADYYCASYDESAHSVFGGGTKLTVLG | 10.05
NVS804 (Fab, V domains shown) VH: EVQLVQSGAEVKKPGSSVKVSCKASGGTFSSYAISWVRQAPGQGLEWMGRIIPIFGTANYAQKFQGRVTITADESTSTAYMELSSLRSEDTAVYYCARHGGYIFDSWGQGTLVTVSS VL: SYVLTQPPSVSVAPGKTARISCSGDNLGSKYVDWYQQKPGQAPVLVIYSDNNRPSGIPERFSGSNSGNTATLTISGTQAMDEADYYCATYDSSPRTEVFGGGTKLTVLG | 11.30
NVS805 (Fab, V domains shown) VH: EVQLVQSGAEVKKPGSSVKVSCKASGGTFSSYAISWVRQAPGQGLEWMGRIIPIFGTANYAQKFQGRVTITADESTSTAYMELSSLRSEDTAVYYCARHGGYVFDSWGQGTLVTVSS VL: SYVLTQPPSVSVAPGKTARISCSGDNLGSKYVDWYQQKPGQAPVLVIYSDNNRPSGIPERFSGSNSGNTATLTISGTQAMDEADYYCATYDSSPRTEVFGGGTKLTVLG | 11.52
